Reported AIRE transcriptional activation functional score values are given for each entry in this list.
B1: library; numbered along this chain (parent)
chain: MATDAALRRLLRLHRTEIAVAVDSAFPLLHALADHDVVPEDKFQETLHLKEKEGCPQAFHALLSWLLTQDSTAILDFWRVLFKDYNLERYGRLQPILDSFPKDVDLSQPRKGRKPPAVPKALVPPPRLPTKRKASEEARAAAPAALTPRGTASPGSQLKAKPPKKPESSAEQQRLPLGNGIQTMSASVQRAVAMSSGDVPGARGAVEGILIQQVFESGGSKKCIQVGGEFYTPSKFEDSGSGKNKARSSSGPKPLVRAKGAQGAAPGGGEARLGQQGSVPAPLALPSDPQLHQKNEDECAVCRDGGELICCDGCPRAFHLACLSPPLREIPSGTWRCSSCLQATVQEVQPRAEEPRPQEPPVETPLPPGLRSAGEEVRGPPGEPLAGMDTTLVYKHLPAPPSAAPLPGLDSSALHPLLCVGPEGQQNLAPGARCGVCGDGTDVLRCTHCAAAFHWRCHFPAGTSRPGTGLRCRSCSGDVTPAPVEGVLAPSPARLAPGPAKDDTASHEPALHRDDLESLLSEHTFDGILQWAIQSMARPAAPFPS

Variants of: B1
assay_overview: AIRE transcriptional activation functional score (insulin promoter-GFP; nonsense median 0, synonymous median 1) (normalised score); higher = higher AIRE activity (more reporter activation)
condition_context: with insulin promoter-GFP reporter in HEK293
readout_label: AIRE transcriptional activation functional score

A321V; 1.05
C457R; -0.0861
A532Y; 0.432
Q213H; 1.15
S278A; 0.851
K114M; 0.913
P365E; 1.33
E229N; 0.433
L128S; 0.817
R356Q; 0.912
G424M; 0.308
L341M; 0.759
C302D; 0.537
L146M; 0.496
A452H; 0.816
K221R; 0.95
L63A; 0.181
G269K; 1.07
P95S; 0.715
R316I; 1.26
P416V; 0.526
A141Q; 1.24
T151D; 1.27
L470N; 1.06
L62I; -0.601
S372N; 1.2
K159D; 0.68
P56R; 0.352
V206S; 0.691
G313E; 0.654
A386R; 1.1
S196T; 0.82
C449A; -0.278
G462H; 0.925
Q262M; 0.443
V38F; -0.138
P252S; 1.03
R113I; 1.46
G424Y; 0.738
G408S; 1.03
V118K; 0.143
A386F; 1.74
F77V; 0.192
L32W; -1.32
P148K; -0.163
K159M; 0.791
